system: Human diffuse large B-cell lymphoma cell line (TMD8); test: Inhibition of TMD8 cell proliferation (CellTiter luminescent viability); type: cell-based; conditions: Homo sapiens, TMD8, 96 h, Table IF1, AR inhibitor-based, TMD8, 10 nM, read-out: Inhibition Rate at 10 nM (%)
Readout: inhibition at 0.01 µM

Worked set:
The value of inhibition at 0.01 µM recorded for CC1(C)[C@H](NC(=O)c2ccc(N3CCC(CN4C5CCC4CN(c4ccc6c(c4)C(=O)N(N4CCC(=O)NC4=O)C6=O)C5)CC3)nc2)C(C)(C)[C@H]1Oc1ccc(C#N)c(Cl)c1 [GT-05826] when tested on Human diffuse large B-cell lymphoma cell line (TMD8) reads 25 to 30%

For the compound N#Cc1ccc(O[C@H]2CC[C@H](NC(=O)c3ccc(N4CCC(CN5CCN(c6ccc7c(c6F)C(=O)N(N6CCC(=O)NC6=O)C7=O)CC5)CC4)nn3)CC2)cc1Cl [GT-05232] , the measured inhibition at 0.01 µM on Human diffuse large B-cell lymphoma cell line (TMD8) was 10 to 15%

Measured inhibition at 0.01 µM (Human diffuse large B-cell lymphoma cell line (TMD8)), entry N#Cc1ccc(O[C@H]2CC[C@H](NC(=O)c3ccc(N4CCC(CN5CC6CC(C5)N6c5ccc6c(c5)C(=O)N(N5CCC(=O)NC5=O)C6=O)CC4)nn3)CC2)cc1Cl [GT-05231] : 5 to 10%

The compound N#Cc1ccc(O[C@H]2CC[C@H](NC(=O)c3ccc(N4CCC(CN5C[C@H]6C[C@@H]5CN6c5ccc6c(c5)C(=O)N(N5CCC(=O)NC5=O)C6=O)CC4)nn3)CC2)cc1Cl [GT-05227] , tested on Human diffuse large B-cell lymphoma cell line (TMD8), showed inhibition at 0.01 µM of 15 to 20%

More entries:
Hey, Human diffuse large B-cell lymphoma cell line (TMD8) data for N#Cc1ccc(O[C@H]2CC[C@H](NC(=O)c3ccc(N4CCC(CN5CCN(c6cccc7c6C(=O)N(N6CCC(=O)NC6=O)C7=O)CC5)CC4)nn3)CC2)cc1Cl [GT-05230] : inhibition at 0.01 µM came out at 5 to 10%

----------
tested on: Human diffuse large B-cell lymphoma cell line (TMD8); test: Inhibition of TMD8 cell proliferation (CellTiter luminescent viability); type: cell-based; settings: Homo sapiens, TMD8, 96 h, Table IJ3, Tau inhibitor-based, TMD8, 500 nM, read-out: Inhibition Rate at 500 nM (%)
Readout: inhibition at 0.5 µM

get_value(item= Cn1c2ccncc2c2ccc(-c3cnc(N4CCN(CC5CCN(c6ccc7c(c6)C(=O)N(N6CCC(=O)NC6=O)C7=O)CC5)CC4)c(C(F)(F)F)c3)cc21 , readout=inhibition at 0.5 µM) returns 40 to 50%

// inhibition at 0.5 µM value for Cn1c2ccncc2c2ccc(-c3cnc(N4CCN(CC5CCN(c6cccc7c6C(=O)N(N6CCC(=O)NC6=O)C7=O)CC5)CC4)c(Cl)c3)cc21 : 80 to 100%

get_value(item= Cn1c2ccncc2c2ccc(-c3ccc(N4CCN(CC5CCN(c6cccc7c6C(=O)N(N6CCC(=O)NC6=O)C7=O)CC5)CC4)nc3)cc21 , readout=inhibition at 0.5 µM) returns 80 to 100%

Data point: Cn1c2ccncc2c2ccc(-c3cnc(N4CCN(Cc5ccc6c(c5)CN(N5CCC(=O)NC5=O)C6=O)CC4)c(C(F)(F)F)c3)cc21 ; inhibition at 0.5 µM = 60 to 70%

Noted for O=C1CCN(N2C(=O)c3cccc(N4CCC(CN5CCN(c6ccc(-c7ccc8c(c7)[nH]c7ccncc78)cn6)CC5)CC4)c3C2=O)C(=O)N1 : its inhibition at 0.5 µM reads 60 to 70%

Now for the compound whose inhibition at 0.5 µM we want.
inhibition at 0.5 µM measured on Cc1cc(-c2ccc3c4cnccc4n(C)c3c2)cnc1N1CCN(CC2CCN(c3cccc4c3C(=O)N(N3CCC(=O)NC3=O)C4=O)CC2)CC1 = 80 to 100%
